# Tested on: NCI-H226 lung
# method.summary: NCI tumour cell line growth inhibition, 48 h

| molecule | study.target | GI50 |
| --- | --- | --- |
| Cc1cc(N=Nc2ccccc2C)ccc1N | NCI-H226 lung | 10.3 µM |
| CSc1nc2sc3c(c2c(=O)n1-c1ccc(C(C)C)cc1)CCC(=O)C3 | NCI-H226 lung | 1.99 µM |
| N#CCN1CCn2c1nsc2=S | NCI-H226 lung | > 100 µM |
| CCC1(O)C(=O)OCc2c1cc1n(c2=O)Cc2cc3c(NC(=O)CN)cccc3nc2-1 (centres undefined) | NCI-H226 lung | 0.385 µM |
| Oc1ccc(C(c2ccc(O)cc2)c2ccc(Br)cn2)cc1 | NCI-H226 lung | 0.243 µM |
| Cn1cc(C2=C(c3cccc(OC[C@@H](O)CO)c3)C(=O)NC2=O)c2ccccc21 | NCI-H226 lung | 16.9 µM |
| COc1ccc(NC(=O)C2CCC(CNS(=O)(=O)c3ccccc3)CC2)cc1OC (centres undefined) | NCI-H226 lung | > 100 µM |
| Cc1ccc(-c2nc([P+](c3ccccc3)(c3ccccc3)c3ccccc3)c(S(=O)(=O)c3ccc(C)cc3)o2)cc1 | NCI-H226 lung | 5.05 µM |
| O=C(CCCCCCN1CC(=O)N2[C@@H](c3ccc(Cl)c(Cl)c3)c3[nH]c4ccccc4c3C[C@H]2C1=O)NO | NCI-H226 lung | 4.52 µM |

---

# Tested on: CAKI-1 renal
# method.summary: NCI tumour cell line growth inhibition, 48 h

| compound | study.target | TGI |
| --- | --- | --- |
| Cc1ccc(NC(=O)CC2C(=O)Nc3ccccc3S2(=O)=O)c(C)c1 (configuration not stated) | CAKI-1 renal | 35.9 µM |
| COCCNC(=O)C1C(=O)C(=O)N(CCOC)C1=O (configuration not stated) | CAKI-1 renal | > 100 µM |
| CC(C)=CC(=O)N(C)C1C2CN3CCC(O2)C13 (configuration not stated) | CAKI-1 renal | > 100 µM |
| O=[N+]([O-])c1ccc(N2CCOCC2)c2c1no[n+]2[O-] | CAKI-1 renal | 1.89 µM |
| NC(=O)C(=O)C1CCC2=C(Sc3ccccc3N2)C1=O (configuration not stated) | CAKI-1 renal | > 100 µM |
| CC(=O)Oc1ccc(/C=C/C(=O)OCCCOC(=O)/C=C/c2ccc(OC(C)=O)c(OC(C)=O)c2)cc1OC(C)=O | CAKI-1 renal | > 100 µM |
| O[C@@]12Cc3c([nH]c4ccccc34)[C@@H]3Oc4cccc5c4[C@@]31CCN(CC1CC1)[C@@H]2C5 | CAKI-1 renal | 34.2 µM |
| N#CC(C#N)c1ccc(C(=O)N2CCC[C@H]2CO)cc1 | CAKI-1 renal | > 100 µM |
| CON(C)c1nc(N(C)OC)nc(N(C)OC)n1 | CAKI-1 renal | > 10 µM |
| C[CH2][Sn]([CH2]C)([O]C(=O)c1ccccc1OC)[O][Sn]([CH2]C)([CH2]C)[O]C(=O)c1ccccc1OC | CAKI-1 renal | > 100 µM |
| Oc1ccc2cc(Br)ccc2c1-c1c(O)ccc2ccc(Br)cc12 | CAKI-1 renal | 34 µM |
| NNC(=O)c1c(-c2cccnc2)cnc2ccccc12 | CAKI-1 renal | > 100 µM |
| C=CNC(=O)NC(=O)CSc1nnc(-c2ccccc2NC(=O)C(F)(F)F)c(=O)[nH]1 | CAKI-1 renal | > 100 µM |
| C=C1CC(c2ccc(OCCCN3C(=O)c4ccccc4C3=O)cc2)OC1=O (configuration not stated) | CAKI-1 renal | 6.54 µM |
| CCCCCCCC1(N=[N+]=[N-])C(=O)Nc2ccccc2C1=O (configuration not stated) | CAKI-1 renal | 27.8 µM |
| COc1cc2c(cc1OC)-c1ncc3c(OC)c(OC)c(OC)cc3c1C2 | CAKI-1 renal | > 100 µM |
| CCC1(O)C(=O)OCc2c1cc1n(c2=O)Cc2cc3c(NC(=O)CN)cccc3nc2-1 (configuration not stated) | CAKI-1 renal | 8.37 µM |
| Cc1ccc(-c2nc([P+](c3ccccc3)(c3ccccc3)c3ccccc3)c(S(=O)(=O)c3ccc(C)cc3)o2)cc1 | CAKI-1 renal | 2.71 µM |
| O=C(/C=C/c1ccccc1)Oc1ccc(C(=O)/C=C/c2ccc(Cl)cc2)cc1 | CAKI-1 renal | > 100 µM |
| O=c1[nH]nc(Cc2ccccc2)n1C1CCCC1 | CAKI-1 renal | > 100 µM |
| N#CC1=C(/N=C/c2ccccc2)Oc2c(ccc3ccccc23)C1c1ccccc1 (configuration not stated) | CAKI-1 renal | > 53.7 µM |
| c1ccc(CCc2cccnc2)nc1 | CAKI-1 renal | > 100 µM |
